# targetSystem: Beta-secretase 1 (Homo sapiens)
# Sequence (P56817 whole entry): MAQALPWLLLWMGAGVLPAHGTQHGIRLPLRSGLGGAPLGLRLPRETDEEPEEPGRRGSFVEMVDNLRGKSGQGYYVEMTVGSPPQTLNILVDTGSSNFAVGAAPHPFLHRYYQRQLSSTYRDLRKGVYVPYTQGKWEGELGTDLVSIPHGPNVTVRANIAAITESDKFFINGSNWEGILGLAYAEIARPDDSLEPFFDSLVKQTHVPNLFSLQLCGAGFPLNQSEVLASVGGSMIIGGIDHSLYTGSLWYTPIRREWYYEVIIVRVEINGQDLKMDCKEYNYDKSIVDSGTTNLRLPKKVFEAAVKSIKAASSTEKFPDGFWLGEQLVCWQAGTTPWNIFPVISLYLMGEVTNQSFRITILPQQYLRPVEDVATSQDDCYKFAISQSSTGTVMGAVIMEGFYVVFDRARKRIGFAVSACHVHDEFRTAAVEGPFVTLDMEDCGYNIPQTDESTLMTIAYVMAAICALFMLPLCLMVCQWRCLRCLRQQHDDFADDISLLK
# measurementNotes: Inhibition of BACE1 by FRET assay
Kindly supply the reported IC50 values for the records listed here.
Answers are plain numbers, in nM.

compound: NC1=N[C@@]2(CCOC1)c1cc(-c3cccnc3F)ccc1Oc1cnc(C3CCC(F)(F)C3)cc12 (some centres not stated)
targetSystem: Beta-secretase 1 (Homo sapiens)
IC50, nM: 3

Task item: # get_value(readout='IC50', item= NC1=N[C@@]2(CCOC1)c1cc(-c3cccnc3F)ccc1Oc1cnc(-c3ccc(F)c(F)c3)cc12 )
Reply: 2

Recorded values, source ChEMBL document CHEMBL2150927.
